Catalogue of CE (% Inhib.) readings, one per entry.
- ASSAY_INFO: inhibition of carrageenin-induced foot edema test (carrageenin edema, CE)
- Format: in vivo
- MEASUREMENT_CONTEXT: oral, dose 0.08 (head: mmol/kg; text: millimoles (μM)/kg.)
- Description: Anti-inflammatory activity was determined using (1) the inhibition of carrageenin-induced foot edema test essentially described by […] and (2) a modification of the inhibition of adjuvant-induced arthritis test described by Pierson, J. Chronic Diseases 16, 863 (1963) and Glenn et al., Am. J. Vet. Res. 26, 1180 (1965). […]
ENDPOINT_NAME: CE (% Inhib.) (%)

COMPOUND | ENDPOINT_NAME | OBSERVED_VALUE
CC(C)Cc1ccc(C(C)CN2CCCCC2CC2CCCCC2)cc1 (centres unmarked) [Example 1] | CE (% Inhib.) | 0
CC(CN1CCCCC1CC1CCCCC1)c1ccccc1 (centres unmarked) [Example 5] | CE (% Inhib.) | 13
CC(C)Cc1ccc(C(C)CN2C(C)CCCC2C)cc1 (centres unmarked) [Example 3] | CE (% Inhib.) | 0
CC(CN1CCCCC1CC1CCCCC1)c1cccc(Br)c1 (centres unmarked) [Example 4] | CE (% Inhib.) | 0
CCN(CC)CCCC(C)NCC(C)c1ccc(CC(C)C)cc1 (centres unmarked) [Example 2] | CE (% Inhib.) | 17
